EXPERIMENTAL DETAILS: chemical genetic growth profiling, strain panel (AID 1159580);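 further: tested at 20 µM; growth read once vehicle control cultures reached saturation at 30 °C; 1 = growth at the plate median or of vehicle wells; lower values mean less growth of the strain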
STATED CONDITIONS: S. cerevisiae deletion strains, growth OD, locus YCL061C, strain MRC1 (second series), active compounds read low
Among all 5,500 compounds or so, about 2,000 (36%) were called active. Inconclusive results (about 18%) are left out. Some of the results follow.
Answer each item with its documented normalized growth.
Reply briefly: the number, and no unit.

Need normalized growth of C[C@]12CCC3C(CC[C@H]4C[C@H](O)CC[C@]34C)C1CC[C@@H]2C(=O)CO (stereo partly specified) , thanks.
1.01

Need normalized growth of C[C@]12CC[C@H]3[C@@H](CCC4C[C@H](O)CC[C@@]43C)[C@@H]1CC[C@@H]2O (stereo partly specified) , thanks.
1

Need normalized growth of CC(O)C(C)OC(=O)[C@@H]1C[C@@H]2c3cccc4c3c(cn4C(C)C)C[C@H]2N(C)C1 (stereo partly specified) , thanks.
0.98

Need normalized growth of Cc1ccccc1/C=C/C1=NCCN1 , thanks.
1.01

Need normalized growth of CC1(C)C(=O)N(CCN2CCC(C(=O)c3ccc(F)cc3)CC2)c2ccccc21 , thanks.
0.999

Need normalized growth of CC(=O)[C@H]1CCC2C3CC[C@H]4C[C@H](O)CC[C@]4(C)C3CC[C@@]21C (stereo partly specified) , thanks.
1

---

EXPERIMENTAL DETAILS: chemical genetic growth profiling, strain panel (AID 1159580);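 further: tested at 20 µM; growth read once vehicle control cultures reached saturation at 30 °C; 1 = growth at the plate median or of vehicle wells; lower values mean less growth of the strain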
STATED CONDITIONS: S. cerevisiae deletion strains, growth OD, locus YGR229C, strain SMI1, active compounds read low
The campaign covered roughly 5,500 compounds. About 2,000 (36%) were called active. Inconclusive results (about 18%) are left out. The list shows a part of the results.
Answer each item with its documented normalized growth.
Reply briefly: the number, and no unit.

Need normalized growth of FC(F)(F)c1cccc(N2CCNCC2)c1 , thanks.
0.987

Need normalized growth of COc1ccc2c(=O)c(OC)c(-c3ccccc3)oc2c1 , thanks.
0.477

Need normalized growth of O=C1CCCCC/C=C/CCCCCCCCO1 , thanks.
0.893

Need normalized growth of COc1ccc2oc(-c3ccccc3)c(OC)c(=O)c2c1 , thanks.
0.58

Need normalized growth of CC(C)/C(O)=C1/C(=O)O[C@@H](c2ccoc2)[C@]2(C)C(O)[C@@H](O)[C@@]34OC5(C)OC67CC(C)(C(O)[C@]6(O)[C@@H](O)[C@]3(O5)C12)[C@H](CC(=O)O)[C@]74C (some centres not stated) , thanks.
0.991

Need normalized growth of NC(=O)NC1NC(=O)NC1=O (configuration not stated) , thanks.
1.01

Need normalized growth of CN1CCC[C@@H]1CCO[C@](C)(c1ccccc1)c1ccc(Cl)cc1 , thanks.
0.491

---

Answer each item with its documented normalized growth.
EXPERIMENTAL DETAILS: chemical genetic growth profiling, strain panel (AID 1159580);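 further: tested at 20 µM; growth read once vehicle control cultures reached saturation at 30 °C; 1 = growth at the plate median or of vehicle wells; lower values mean less growth of the strain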
STATED CONDITIONS: S. cerevisiae deletion strains, growth OD, locus YHR082C, strain KSP1, active compounds read low
Screen size: about 5,500 compounds; about 2,000 (36%) were called active. Not shown: some 18% with an inconclusive outcome. Some of the results follow.
Reply briefly: the number, and no unit.

Need normalized growth of Cc1cccc(N=NC(C(=O)C(F)(F)F)=C(O)c2cccs2)c1 , thanks.
1.07

Need normalized growth of Clc1ccccc1-c1csc(-c2cccnc2)n1 , thanks.
0.894

Need normalized growth of C[C@@H](Nc1ncnc2sc3c(c12)CCCC3)c1ccccc1 , thanks.
0.944

Need normalized growth of Cn1nccc1-c1cc(Cl)cc(Cl)c1O , thanks.
0.748

Need normalized growth of CN(C)c1ccc(/C=C/c2ccc3ccccc3[n+]2C)cc1 , thanks.
0.806

Need normalized growth of O=C(Nc1cc(Cl)ccc1O)c1ccccc1CSc1ccc(Cl)cc1 , thanks.
0.652

Need normalized growth of CCOC(=O)c1ccc(Oc2sccc2[N+](=O)[O-])cc1 , thanks.
0.878

Need normalized growth of CC1C(c2ccccc2)N(C)C(c2ccccc2)CC1(O)c1ccc(F)cc1 (configuration not stated) , thanks.
1.13

Need normalized growth of Clc1ccc(-c2cnc(Nc3cc(Cl)cc(Cl)c3)s2)cc1 , thanks.
0.126

Need normalized growth of CNC(=O)Sc1c(-c2ccc(Cl)cc2)nn(C(=O)NC)c1SC , thanks.
0.353

Need normalized growth of N#Cc1cccc(CSc2nc3ccc(C(F)(F)F)cc3[nH]2)c1 , thanks.
0.965

Need normalized growth of Clc1cc(Cl)cc(C=NCc2ccccc2)c1 , thanks.
0.616

Need normalized growth of COc1ccc(-c2csc(-c3cccnc3)n2)cc1 , thanks.
0.954

Need normalized growth of C/C(=N/NC(=S)NCC(C)(C)C)c1cc(F)cc(Cl)c1O , thanks.
0.964

Need normalized growth of O=[N+]([O-])c1ccsc1Oc1cccc(C(F)(F)F)c1 , thanks.
0.907

Need normalized growth of CC1CCC(C(C)C)C(N(Cc2ccccc2)C(=O)c2ccccc2)C1 (configuration not stated) , thanks.
1.01

Need normalized growth of Nc1ccccc1C(=O)Nc1cc(C(F)(F)F)cc(C(F)(F)F)c1 , thanks.
0.851
